# Target desc: EGFR (Homo sapiens)
# Sequence (P00533 25-1210): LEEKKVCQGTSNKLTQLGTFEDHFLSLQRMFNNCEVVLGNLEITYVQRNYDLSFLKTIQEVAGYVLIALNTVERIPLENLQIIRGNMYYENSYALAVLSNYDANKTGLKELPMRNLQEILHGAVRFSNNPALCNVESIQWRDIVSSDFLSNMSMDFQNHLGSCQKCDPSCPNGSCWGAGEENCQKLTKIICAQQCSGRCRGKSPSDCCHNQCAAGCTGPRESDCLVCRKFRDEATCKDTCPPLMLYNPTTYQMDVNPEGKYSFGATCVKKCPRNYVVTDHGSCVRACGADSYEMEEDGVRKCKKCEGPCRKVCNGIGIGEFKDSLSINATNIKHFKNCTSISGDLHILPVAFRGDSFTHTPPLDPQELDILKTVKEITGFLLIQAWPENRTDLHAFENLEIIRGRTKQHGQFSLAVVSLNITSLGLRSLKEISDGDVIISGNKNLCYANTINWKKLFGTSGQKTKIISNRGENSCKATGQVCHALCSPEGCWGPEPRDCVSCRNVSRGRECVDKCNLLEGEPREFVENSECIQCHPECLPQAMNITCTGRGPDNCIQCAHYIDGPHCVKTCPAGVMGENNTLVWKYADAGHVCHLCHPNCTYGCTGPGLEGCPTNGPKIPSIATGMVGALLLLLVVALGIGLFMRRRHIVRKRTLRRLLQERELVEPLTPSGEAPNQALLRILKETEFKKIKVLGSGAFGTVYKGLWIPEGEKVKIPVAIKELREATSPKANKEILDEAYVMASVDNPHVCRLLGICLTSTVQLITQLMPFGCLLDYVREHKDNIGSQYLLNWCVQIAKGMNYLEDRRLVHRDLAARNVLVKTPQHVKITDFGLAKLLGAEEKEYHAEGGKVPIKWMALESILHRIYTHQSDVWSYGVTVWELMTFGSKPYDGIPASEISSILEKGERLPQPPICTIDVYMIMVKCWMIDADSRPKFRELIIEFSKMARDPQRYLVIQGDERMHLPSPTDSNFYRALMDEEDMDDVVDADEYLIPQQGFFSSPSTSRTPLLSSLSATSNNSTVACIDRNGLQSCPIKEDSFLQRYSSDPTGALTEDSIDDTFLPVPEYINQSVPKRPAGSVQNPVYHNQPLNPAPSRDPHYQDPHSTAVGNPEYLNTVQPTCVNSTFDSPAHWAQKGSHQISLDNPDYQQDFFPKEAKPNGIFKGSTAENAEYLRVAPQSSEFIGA
# Procedure summary: ELISA assay of EGFR tyrosine kinase activity (C4)
# Format: biochemical
# Measurement context: poly(Glu, Tyr) coated plate, 5 μM ATP, room temperature 10 min
The following compounds are shown together with reported IC50 values.
Attribute measured: IC50

• COc1cc2ncnc3c2cc1OCCCCCCCOc1ccc(Cl)cc1N3 [Compound 7] = > 1000 nM
• COc1cc2ncnc3c2cc1OCCCCCCCCOc1ccc(Cl)cc1N3 [Compound 8] = 329 nM
• Brc1ccc2c(c1)Nc1ncnc3ccc(cc13)OCCCCCCO2 [Compound 18] = > 1000 nM
• COc1cc2ncnc3c2cc1OCCCCCOc1ccc(Cl)cc1N3 [Compound 4] = 556 nM
• COc1cc2ncnc3c2cc1OCCCCCCOc1ccc(Br)cc1N3 [Compound 6] = 359 nM
• COc1cc2ncnc3c2cc1OCCCCCCOc1ccc(C(=O)N2CCOCC2)cc1N3 [Compound 14] = > 1000 nM
• COC(=O)c1ccc2c(c1)Nc1ncnc3cc(OC)c(cc13)OCCCCCCO2 [Compound 10] = > 1000 nM
• COc1cc2ncnc3c2cc1OC(=O)CCCCCOc1c(C)cccc1N3 [Compound 1] = > 1000 nM
• COc1cc2ncnc3c2cc1OCCCCCCOc1ccc(C(=O)N2CCCC2)cc1N3 [Compound 12] = > 1000 nM
